- Experiment Description: Heat stability (no precipitation after heat treatment)
- Cond: 10 min at 100° C. or 30 min at 85° C.

{"columns": ["Molecule", "Heat stability"],
 "data": [
  ["Δ2-6 I40C: SP1 Loop 2 modification Δ2-6 I40C, SEQ ID NO:18 (protein, Sp1 mutant variant amino acids 2-6 deleted and I40C mutated) MKLVKHTLLTRFKDEITREQIDNYINDYTNLLDLCPSMKSFNWGTDLGMESAELNRGYTHAFESTFESKSGLQEYLDSAALAAFAEGFLPTLSQRLVIDYFLY", "+"],
  ["42-6 S73C: SP1 Loop 4 modification, printed 42-6 S73C, SEQ ID NO:21 (protein, Sp1 mutant variant amino acids 2-6 deleted and S73C mutated) MKLVKHTLLTRFKDEITREQIDNYINDYTNLLDLIPSMKSFNWGTDLGMESAELNRGYTHAFESTFECKSGLQEYLDSAALAAFAEGFLPTLSQRLVIDYFLY", "+"],
  ["R23A: SP1 mutant R23A, SEQ ID NO:12 (protein, Sp1 mutant variant R23A mutated) MATRTPKLVKHTLLTRFKDEITAEQIDNYINDYTNLLDLIPSMKSFNWGTDLGMESAELNRGYTHAFESTFESKSGLQEYLDSAALAAFAEGFLPTLSQRLVIDYFLY", "+"]
]}
